# Test system: RARg homodimer (NR concentration 270 nM)
# Assay comment: PBM binding z-score (relative to random genomic background probes); higher = stronger binding; sequences stand for … in GC…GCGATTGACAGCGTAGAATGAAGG
PBM binding z-score of 0.8 or higher: condition met. Under 0.8: condition not met.

Sequence record	Measured target	Label class
CCTTACGGGTTACGAGGTTATAGCACGACGAGCG	RARg homodimer (NR concentration 270 nM)	condition met
GTACCAAGGTGAATAAGTCGTTGATGAGTAGGCG	RARg homodimer (NR concentration 270 nM)	condition not met
CCTTACGGGTCAAGGCTATAGCACGGGTGGTACG	RARg homodimer (NR concentration 270 nM)	condition met
CGAACTAGGTCAGAACAGGACACTGAAGGATGAT	RARg homodimer (NR concentration 270 nM)	condition met
ACAGACAGGTGAAGAAGGTAACTCAGGCTATCAT	RARg homodimer (NR concentration 270 nM)	condition met
CGTACAAGGTCAGCAGGTCAGTGAAAGCGACGTG	RARg homodimer (NR concentration 270 nM)	condition met
AGAACGAGGGCACGCTGAGTTGATAGTAGAGTAG	RARg homodimer (NR concentration 270 nM)	condition met
AATACAGGGTCACTAGGCCAGAGGAGGTACGAAT	RARg homodimer (NR concentration 270 nM)	condition met
CAGCCTAGGTCAGGGCCAGAATAGGAGGAACGTT	RARg homodimer (NR concentration 270 nM)	condition met
ACAGACAGGTGATGAAGGTAAATCAGGCTATCAT	RARg homodimer (NR concentration 270 nM)	condition not met

Asked: Answer whether PBM binding z-score of ACAGACAGGTGAGTGAAGGTAACCCAGCTGGACG is greater than or equal to 0.8.
Given back: condition not met

Asked: Answer whether PBM binding z-score of CGAACTAGGTCTTTGACAGGACAGTGAATAGTAA is greater than or equal to 0.8.
Given back: condition not met

Asked: Answer whether PBM binding z-score of CAAACTAGGTCAAGAAGTCAAAGTCCGCTTCCCG is greater than or equal to 0.8.
Given back: condition met

Asked: Answer whether PBM binding z-score of TCGCCTAGGTCATGCGGGCCAGTATAGTGTCGGC is greater than or equal to 0.8.
Given back: condition met

Asked: Answer whether PBM binding z-score of CGAACTAGGTCATCCCGGACAGTGAATACATTGA is greater than or equal to 0.8.
Given back: condition met

Asked: Answer whether PBM binding z-score of CCTGCTAGGACATGGTCAGCTAATCTACAGTATG is greater than or equal to 0.8.
Given back: condition not met

Asked: Answer whether PBM binding z-score of TCGAGTAGGTTAGCGGCATTCAGAATGGCGTCGA is greater than or equal to 0.8.
Given back: condition not met

Asked: Answer whether PBM binding z-score of GCATATAGGAAATACAAGGTGAAAGTCCGATTGT is greater than or equal to 0.8.
Given back: condition not met

Asked: Answer whether PBM binding z-score of CAAACTAGGTCACAGAGGTCTAAGTCCGTGCGTA is greater than or equal to 0.8.
Given back: condition met

Asked: Answer whether PBM binding z-score of CTCGAAAGGTCGGTTGAGGTGAGTATACGGATAA is greater than or equal to 0.8.
Given back: condition met

Asked: Answer whether PBM binding z-score of TAGCGTAGGTCATTCAGGGGCCAGTATAGAAAGC is greater than or equal to 0.8.
Given back: condition met

Asked: Answer whether PBM binding z-score of ATATGTAGGTTAACGGGTCATTCAGTTTGCGCAT is greater than or equal to 0.8.
Given back: condition met

Asked: Answer whether PBM binding z-score of CTCGAAAGGTCGTGCTCATGTGAGTATACCAAAC is greater than or equal to 0.8.
Given back: condition met

Asked: Answer whether PBM binding z-score of GCTCGGAGGACAAGGTCAAAGCTTTGTCCGTAGA is greater than or equal to 0.8.
Given back: condition met

Asked: Answer whether PBM binding z-score of CCTAGCAGGCCAGGGTCATTCAAGCATTTCGCTT is greater than or equal to 0.8.
Given back: condition met

Asked: Answer whether PBM binding z-score of GCTGCTAGGACAACTGATGGTCAGCTAAAGCTCG is greater than or equal to 0.8.
Given back: condition not met

Asked: Answer whether PBM binding z-score of CGTCCAAGGTCAATGCTTGGTCAGTGAAAGCATT is greater than or equal to 0.8.
Given back: condition met

Asked: Answer whether PBM binding z-score of ACAGACAGGTGATGAAGATAACTCAGGCTATCAT is greater than or equal to 0.8.
Given back: condition not met

Asked: Answer whether PBM binding z-score of GCGACTGAGGCAAAGCAGGTTACCATAAGGTTGG is greater than or equal to 0.8.
Given back: condition not met
